assay: soluble on expression in E. coli; label from the status in PepcDB or PDB records
Measurement Kind: soluble on expression in E. coli

MAHHHHHHKNTAKTAPNHDRIKNLIAKLNNSKDEDKKKNSPNGQINRTGDVYAKNELINKKKKHINFETFLRIFLETYEEPLSVDELITSFEFFDKEKSGYLDEEKVRFILKNSEERLADEDMKLFLNSLNLRDKDKIDYVMLAKRLKNVA	soluble
MPNILYKIDNQYPYFTKNEKKIAQFILNYPHKVVNMTSQEIANQLETSSTSIIRLSKKVTPGGFNELKTRLSKFLPKEVTQYNVELVDNESTISLKNKLHSRSKAAL	soluble
